The measurements presented in this section are drawn from patent US20030148958A1.

Record form. Attribute: CRF1R EC50. Fill in for each entry.
# Target Desc: corticotropin releasing factor 1 receptor
# Experimental Details: cell-based or functional assay
Ends that are not written are not given here.
Answers are plain numbers, in nM.

# annotated cases, reported CRF1R EC50 shown
Binder	CRF1R EC50, nM
SQEPPISLDLTIGLLREVLEMTKADQLAQQAHSNRKLLDIA-NH2 [SEQ ID NO 86]	100
DNPSLSIDLPLLLLRTLLELARTQSQRERAEQNAIIFASV-NH2 [SEQ ID NO 174]	1000
ZGPPISIDLPLVLLRKMIEIEKQEKEKQQAANNRLLLDTI (C-terminal amide) [SEQ ID NO 193]	266
ZGPPISIDLPLHLLRKMIEIEKQEKEKQQATTNARILARV (C-terminal amide) [SEQ ID NO 145]	196
ZGPPISIDVPTYLLRILIEIEKQEKEKQQATTNARILARV (C-terminal amide) [SEQ ID NO 169]	978
IVLSLDVPIGLLQELLEMARAEQLAQQAHSNRKLMEII-NH2 [SEQ ID NO 1]	783

List the reported CRF1R EC50 of each binder below.
1. SQEPPISLDLPLHLLREVLEMTKADQLAQQAHSNRKLLDIA-NH2 [SEQ ID NO 102]
2. IVLSLDVPIGLLQILLEQARARAAREQATTQARILARV-NH2 [SEQ ID NO 9]
3. IVLSLDVPIGLLQILIEIEKQEKEKQQAATTNARILARV-NH2 [SEQ ID NO 168]
4. ZGPPISIDLPFQLLRKMIEIEKQEKEKQQATTNARLLDTV (C-terminal amide) [SEQ ID NO 20]
5. SQEPPISLDLPTYLLREVLEMTKADQLAQQAHSNRKLLDIA-NH2 [SEQ ID NO 106]

1. 100
2. 100
3. 1000
4. 906
5. 100
